B1: Homeobox protein cut-like 1, residues 548 to 629; numbered along this chain, P39880 (parent)
chain: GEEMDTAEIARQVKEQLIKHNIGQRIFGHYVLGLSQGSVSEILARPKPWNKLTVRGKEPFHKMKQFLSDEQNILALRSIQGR

# Variants of: B1
# assay_explanation: abundance fitness (aPCA) (normalised: wild type 0, dead -1); higher = more abundant; growth selection in yeast, the domain comes from the species named
# measurement_setup: Homo sapiens
Mark yes for reported abundance fitness of -0.5 or greater; mark no for anything smaller.

Examples from the recorded data:
• E15A = yes
• S78T = yes
• I42Q = no
• G28T = yes
• G28P = no
• N72V = yes
• E8M = yes
• E41A = yes

Does abundance fitness meet or surpass -0.5 for K57G ?
no
